Every entry's value here was drawn from patent US7572831B2.

- system_tested: MMP-2 (Homo sapiens, UniProt P08253)
- Construct: made in house; host or cells: Sf21 insect cells, baculovirus (pBlueBac4.5)
- Sequence (P08253 110-660): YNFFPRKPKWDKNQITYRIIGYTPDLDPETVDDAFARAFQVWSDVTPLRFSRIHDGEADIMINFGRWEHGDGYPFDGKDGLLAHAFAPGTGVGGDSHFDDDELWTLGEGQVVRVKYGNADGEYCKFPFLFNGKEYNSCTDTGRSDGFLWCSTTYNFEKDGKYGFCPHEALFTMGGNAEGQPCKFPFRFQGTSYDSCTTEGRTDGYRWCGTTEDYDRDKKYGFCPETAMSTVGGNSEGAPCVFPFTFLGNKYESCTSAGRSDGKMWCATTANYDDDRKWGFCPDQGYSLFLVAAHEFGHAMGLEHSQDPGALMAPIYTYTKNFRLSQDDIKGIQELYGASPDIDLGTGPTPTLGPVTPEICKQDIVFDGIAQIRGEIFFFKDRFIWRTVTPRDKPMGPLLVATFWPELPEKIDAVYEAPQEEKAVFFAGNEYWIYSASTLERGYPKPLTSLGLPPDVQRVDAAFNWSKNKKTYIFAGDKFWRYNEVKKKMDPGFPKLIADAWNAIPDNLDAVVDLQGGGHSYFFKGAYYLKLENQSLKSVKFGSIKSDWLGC
- method_description: MMP-2 spectrofluorometric enzyme activity assay
- Format: biochemical
- assay_context: 50 μM compound
Class yes: MMP-2 inhibition (% inhibition) at least 90 % inhibition. Class no: MMP-2 inhibition (% inhibition) below 90 % inhibition.

compound | class_assignment
COc1ccc(C(=O)C=Cc2ccccc2)cc1 [4′-methoxy chalcone] | yes
O=C(C=Cc1ccc(O)cc1)c1ccccc1 [4-hydroxy chalcone] | yes
COc1ccc(C=CC(=O)c2ccccc2)cc1 [4-methoxy chalcone] | yes
O=C(CCc1ccc(O)cc1)c1c(O)cc(O)cc1O [Phloretin] | no

---

- system_tested: MMP-13 (Homo sapiens, UniProt P45452)
- Construct: made in house; host or cells: Sf21 insect cells, baculovirus (pBlueBac4.5)
- method_description: MMP-13 spectrofluorometric enzyme activity assay
- Format: biochemical
- assay_context: 50 μM compound
Class True: MMP-13 inhibition (% inhibition) at least 90 % inhibition. Class False: MMP-13 inhibition (% inhibition) below 90 % inhibition.

molecule | class_assignment
COc1ccc(C(=O)C=Cc2ccccc2)c(OC)c1 | False
O=C(C=Cc1ccc(O)cc1)c1ccccc1 [4-hydroxy chalcone] | True
O=C(CCc1ccc(O)cc1)c1c(O)cc(O)cc1O | False
COc1ccc(C=CC(=O)c2ccccc2)cc1 | False
COc1ccc(C(=O)C=Cc2ccccc2)cc1 | False
